Listing of recorded TGI by entry.
# System: TK-10 renal
# ASSAY EXPLANATION: NCI tumour cell line growth inhibition, 48 h

Guide cases for TGI, answers given:
COMPOUND: O=C(O)C1C2c3ccccc3C(c3ccccc32)C1C(=O)NCC1CC1 (centres undefined)
REPORTED VALUE: > 100 µM
--
COMPOUND: Br[Se]c1ccccn1
REPORTED VALUE: 34.5 µM

We now examine a further compound.
get_value(item= O=c1[nH]c2cc(Cl)ccc2nc1/C(=N\Nc1ccccc1)C(O)c1ccc(Cl)c(Cl)c1 (centres undefined) , readout=TGI) returns > 100 µM

* * *

# System: LOX IMVI melanoma
# ASSAY EXPLANATION: NCI tumour cell line growth inhibition, 48 h
TGI: recorded values
Provide the reading as a plain figure in µM.

COMPOUND: CN1CCN(C(=O)COc2ccc(C34CC5CC(CC(C5)C3)C4)cc2)CC1
TARGET ENTITY: LOX IMVI melanoma
VALUE UNITS: µM
TGI: 25
--
COMPOUND: O=C1C(Br)=C(Br)C(=O)c2ccc(=O)ccc21
TARGET ENTITY: LOX IMVI melanoma
VALUE UNITS: µM
TGI: 41.2

Shifting focus to the molecule that follows.
Just so you know, measured TGI for "CCNC(=O)C#Cc1ccc2c(C(=Nc3ccc(CN(C)C)cc3)c3ccccc3)c(O)[nH]c2c1" came out at 0.163
